These measurements were taken from PubChem BioAssay (NCATS).

Experiment: qHTS assay for environmental chemicals that activate the Aryl hydrocarbon Receptor (AhR) signaling pathway (AID 651777); note: % of control where 0% means no effect
Settings: 1A2-DRE human hepatoma cells, luciferase, 24 h; stronger effect = higher value
Records with an inconclusive call do not appear.
value.kind: activation (%)
Dear colleague, please return just the value in %, with no unit written.

# mol, value.kind, value.observed
rows = [
    ("Cc1ccc(S(=O)(=O)NC(=O)NN2CCCCCC2)cc1", "activation", 10.4),
    ("CC(C)(Oc1ccc(CCNC(=O)c2ccc(Cl)cc2)cc1)C(=O)O", "activation", -0.0115),
    ("O=C(O)CCCCCCCC(=O)O", "activation", -0.0037),
    ("C[C@]12C=CC(=O)C=C1CC[C@H]1[C@@H]3C[C@@H](O)[C@](O)(C(=O)CO)[C@@]3(C)C[C@H](O)[C@@]12F", "activation", 0.771),
    ("COc1cc(Cc2cnc(N)nc2N)cc(OC)c1OC", "activation", -1.14),
]

Enquiry: Endpoint output: activation of `CC(=O)Nc1nnc(S(N)(=O)=O)s1` . Value?
Return: -1.84
